Organism: Rattus norvegicus
method-summary: Open TG-GATES - Regimen: Single
Assay type: toxicity, organism-based, Sprague-Dawley
Set-up: regimen Single, gender Male, age 6 weeks
test-context: in vivo, po, 1000 mg/kg, 3 h, tissue Plasma, route gavage, dose level High
In this section we review reported AST values for a set of molecules.
Give the number; IU/L is assumed, so skip it.

Sample records with AST:
CCc1cc(C(N)=S)ccn1 [ETHIONAMIDE]: 69
Clc1ccccc1CN1CCc2sccc2C1 [TICLOPIDINE]: 71.4
C[C@H](CS)C(=O)N1CCC[C@H]1C(=O)O [CAPTOPRIL]: 61

// next entry
O=C(O)c1cc(/N=N/c2ccc(S(=O)(=O)Nc3ccccn3)cc2)ccc1O [SULFASALAZINE] yielded AST of 67.8
